- System: LXFL 529
- assay-summary: NCI tumour cell line growth inhibition, 48 h
Calls of active or inactive are those of the source. No stated cut-off is given here; in the data, active = GI50 up to about 1.1 µM and inactive = higher.
Outcomes: t (active), f (inactive)

compound	category-label
Cc1ccc2c(c1)NC(=O)C(N=[N+]=[N-])(c1ccccc1)C2=O (stereo unspecified)	f
COC(=O)[C@]1(C)CCC[C@@]2(C)C1CCC1=C[C@@]3(C(C)C)CC[C@]12OO3 (stereo partly specified)	f
Cc1cc(C)nc(/C(=N\NC(N)=O)C(=O)Nc2nc3ccc(C)cc3s2)c1	f
COC1C(N)C(OC2C(Oc3cccc4c(O)c5c(=O)oc6ccc(C)c7c(=O)oc(c34)c5c67)OC(C)C(O)C2(C)O)OC(C)C1O (stereo unspecified)	t
COc1c(C)c(O)c2c(c1C)OC(c1ccccc1)CC2=O (stereo unspecified)	f
COc1ccc(C)cc1-c1ccc(-c2cc(C)ccc2OC)o1	f
COc1ccc2oc3cccc(NCCN(C)C)c3c(=O)c2c1	f
CCOC(=O)C1=C(NC(C)(C)C)OCC1=O	f
CC1SC2=NC3=C(c4ccccc4C3=O)C(c3ccc(Cl)cc3)N2C1=O (stereo unspecified)	f
O=c1/c(=C/c2ccccc2[N+](=O)[O-])sc2nnc(-c3ccco3)n12	f
CC(C)C(/N=C1\CC2CCC1(C(=O)Nc1ccccc1O)C2(C)C)c1ccccc1 (stereo unspecified)	f

----------
- Tested on: NCI-H460
- assay-summary: NCI tumour cell line growth inhibition, 48 h
Active and inactive are the calls of the source. Cut-off read from the data, not from the text of the source: active = GI50 up to about 1.1 µM and inactive = higher.
Outcomes: active, inactive

compound	category-label
CCC1=C(C)/C(=C/c2[nH]c(C(Br)Br)c(CC)c2C)N=C1C(Br)Br	inactive
COc1ccc(-c2cc(-c3ccccc3)n(C3OC(COC(C)=O)C(OC(C)=O)C(OC(C)=O)C3OC(C)=O)c(=S)c2C#N)cc1 (centres undefined)	inactive
CON(C)C(C#N)=C(C#N)C#N	inactive
CC(N)C(=O)OCN1C(=O)C2C3C=CC(C2C1=O)C1C2C(=O)N(COC(=O)C(C)N)C(=O)C2C31 (centres undefined)	inactive
O=C(CCCl)NN=C1NCCN1	inactive
O=C1CSC(c2cc3cc(Br)ccc3nc2Cl)N1c1ccc(Cl)cc1 (centres undefined)	inactive
COC1C(N)C(OC2C(Oc3cccc4c(O)c5c(=O)oc6ccc(C)c7c(=O)oc(c34)c5c67)OC(C)C(O)C2(C)O)OC(C)C1O (centres undefined)	active
COc1ccc(/C=C2\N/C(=N\N=C/C(O)C(O)C(O)C(O)CO)NC2=O)cc1 (centres undefined)	inactive
CC(O)CCC(=O)c1ccoc1 (centres undefined)	inactive
O=C(NCCCl)SCCO	inactive
O=C1CCC2(c3ccccc3)Nc3ccccc3N12 (centres undefined)	inactive
CC(=O)C1=C(C)O[C@@H]2O[C@H](COCc3ccccc3)[C@@H](OCc3ccccc3)[C@H](O)[C@@H]2S1	inactive
COc1cc(/C=C/c2ccc(Br)cc2)cc(OC)c1OC	inactive
Nc1nc2c(C(=O)NCc3cccs3)nnn2c2cccc(Cl)c12	inactive
Cc1ccc(-c2nc3cc([N+](=O)[O-])ccc3[nH]2)cc1	inactive
O=C1/C(=C\c2ccc([N+](=O)[O-])o2)SC2NC(COc3ccc(Cl)cc3)=NN12 (centres undefined)	inactive
CCC1OCCN1C(C)C (centres undefined)	inactive
CSC(=S)Nc1cc(C)cc(C)n1	inactive
COc1nc(C(=O)O)c(Cl)c(OC)c1Cl	inactive
CCOC(=O)C1=C(NC(C)(C)C)OCC1=O	inactive
CC(C)(C)c1cc2c3c(c1)c(=O)c1cccc4c(O)c5cccc(c2=O)c5c-3c41	inactive
COC1CC(OC(=O)c2ccccc2)C(OC(=O)c2ccccc2)C(C)O1 (centres undefined)	inactive
COC(=O)c1ccc(C)cc1C1CN=NC12Cc1cccc(C)c1C2=O (centres undefined)	inactive
O=C(NCCc1n[nH]c2c1C(=O)C=C(Nc1ccccc1)C2=O)OCc1ccccc1	inactive
CCn1c(=O)c2cn[nH]c2n(C)c1=O	inactive
O=C1NC2C(O)CCCCC2C12CCCCC2 (centres undefined)	inactive
COC1CCC(OC)C(C2(C3CC(OC)CCC3OC)OC(=O)c3ccccc32)C1 (centres undefined)	inactive
Cc1ccc(/C=C/C(=O)c2c([O-])on[n+]2-c2ccccc2)cc1	inactive
C[N+](C)(C)CCC(=O)CC[N+](C)(C)C	inactive
CO[C@]1(c2ccc([N+](=O)[O-])cc2)Oc2ccccc2C(=O)[C@@]1(Nc1ccc(C=O)cc1)OC	inactive
COC(=O)[C@@]1(NC(=O)C(CC(=O)OC(C)(C)C)NC(=O)OC(C)(C)C)C[C@H]1C (some centres undefined)	inactive
O=C(O)/C(Cl)=C(\Cl)C(=O)Nc1ccc(Cl)c(Cl)c1Cl	inactive
CC1NC(=O)C(C)C(c2ccccc2)N(N=O)C1c1ccccc1 (centres undefined)	inactive
O=c1[nH]c2cc(C(F)(F)F)ccc2nc1CBr	inactive
Cn1c2ccccc2c(=O)c2c(O)cc3c(c21)C=CC1(CCCC1)O3	inactive
O=C(O)C1CC(c2ccccc2)=NN1c1ccccc1 (centres undefined)	inactive
O=C1C=CC(=O)c2c(Cl)ccc(O)c21	inactive
CCCCCCCCCCCCCCCCCCOCC1(COP(=O)([O-])OCC[N+](C)(C)C)CCCO1 (centres undefined)	inactive
COc1c(C)c(O)c2c(c1C)OC(c1ccccc1)CC2=O (centres undefined)	inactive

----------
GI50 values for the molecules below.
- Test system: UO-31
- assay-summary: NCI tumour cell line growth inhibition, 48 h
Active and inactive are the calls of the source. Cut-off read from the data, not from the text of the source: active = GI50 up to about 1.1 µM and inactive = higher.

molecule	GI50
COC(=O)[C@@]1(NC(=O)C(CC(=O)OC(C)(C)C)NC(=O)OC(C)(C)C)C[C@H]1C (stereo partly drawn)	> 100 µM (inactive)
Nc1nc(CCC(=O)Nc2cccc(C(F)(F)F)c2)cc(-c2ccc3ccccc3c2)n1	> 100 µM (inactive)
Cc1ccc2c(c1)C/C(=C\c1ccccc1C(=O)O)C2=O	98.6 µM (inactive)

----------
- Test system: Malme-3M
- assay-summary: NCI tumour cell line growth inhibition, 48 h
Calls of active or inactive are those of the source. Cut-off read from the data, not from the text of the source: active = GI50 up to about 1.1 µM and inactive = higher.
measurement-type: GI50

molecule	study-system	readout-value
CC(=O)Oc1cc(S(=O)(=O)Nc2n[nH]c(Nc3ccc(C)cc3)n2)c(S)cc1Cl	Malme-3M	> 100 µM (inactive)
Cc1ccc(S(=O)(=O)Oc2nc3nc4ccccc4nc3nc2OS(=O)(=O)c2ccc(C)cc2)cc1	Malme-3M	> 100 µM (inactive)
C[C@]12CC[C@H](O)CC1=CC[C@@H]1[C@@H]2CC[C@]2(C)C(=N/O)/C(=C/c3ccc([N+](=O)[O-])cc3)C[C@@H]12	Malme-3M	7.43 µM (inactive)
Cc1cc(C)nc(/C(=N\NC(N)=O)C(=O)Nc2nc3ccc(C)cc3s2)c1	Malme-3M	> 100 µM (inactive)
COC(=O)C1=C(C(=O)OC)N(c2ccncc2)C(c2ccco2)=CC1c1ccccc1[N+](=O)[O-] (stereo not given)	Malme-3M	4.55 µM (inactive)
CN1CCC23c4c5ccc(O)c4OC2c2[nH]c4ccccc4c2CC3(O)C1C5 (stereo not given)	Malme-3M	20.6 µM (inactive)
CC(O)CCC(=O)c1ccoc1 (stereo not given)	Malme-3M	6820 µM (inactive)
CC1=CC(C)C(C)N(CC2=NCCN2)c2ccccc21 (stereo not given)	Malme-3M	21.4 µM (inactive)
COc1ccc(C)cc1-c1ccc(-c2cc(C)ccc2OC)o1	Malme-3M	66.4 µM (inactive)
COc1cc2c(c(O)c1OC)CC1CCC(=O)N1C2c1cccc2ccccc12 (stereo not given)	Malme-3M	21.8 µM (inactive)

----------
- Tested on: HOP-92
- assay-summary: NCI tumour cell line growth inhibition, 48 h
Activity calls are given as the source filed them. No stated cut-off is given here; in the data, active = GI50 up to about 1.1 µM and inactive = higher.
Outcomes: yes = active, no = inactive

molecule	study-system	category-label
Brc1cccc(/N=N/N2CCCC2)c1	HOP-92	no
COC(=O)[C@@H]1c2c(oc3cc(CO)cc(O)c3c2=O)C=C[C@H]1O	HOP-92	no
O=C(CCN1CCOCC1)Nc1ccc(F)cc1F	HOP-92	no
O=C1CSC(c2cc3cc(Br)ccc3nc2Cl)N1c1ccc(Cl)cc1 (stereo unspecified)	HOP-92	no
COC1(OC)CCC2C1C1CCC(OC)(OC)C21 (stereo unspecified)	HOP-92	no
ClCc1ccc2ccc3ccc(CCl)nc3c2n1	HOP-92	no
CC(=O)C1=C(C)O[C@@H]2O[C@H](COCc3ccccc3)[C@@H](OCc3ccccc3)[C@H](O)[C@@H]2S1	HOP-92	no
NC(=O)COC(=O)c1c(Cl)nc2sccn12	HOP-92	no
COc1cc(NC=C2C(=O)OC(C)(C)OC2=O)c(OC)c(C)c1OC	HOP-92	no
CC1=CC(C)C(C)N(CC2=NCCN2)c2ccccc21 (stereo unspecified)	HOP-92	no
COC(=O)CN1SC2(SC13C(C)(C)C(=O)C3(C)C)C(C)(C)C(=O)C2(C)C	HOP-92	yes
CC1(C)CCC[C@@]2(C)C1CC[C@@]1(CO)O[C@H](C3=CC(=O)OC3O)C[C@H]12 (stereo partly specified)	HOP-92	no
CC1=C[C@H]([C@H]2C=C(C)C(C(N)=O)=CN2Cc2c(Cl)cccc2Cl)N(Cc2c(Cl)cccc2Cl)C=C1C(N)=O	HOP-92	no
COC(=O)C1=C(C(=O)OC)C2(C)Nc3ccccc3C2=C(c2ccccc2)C1 (stereo unspecified)	HOP-92	no
FC(F)(F)c1ccccc1C1SCC2=Nc3ccccc3CN21 (stereo unspecified)	HOP-92	no
CCC(=O)O[C@H]1CC[C@H]2[C@@H]3CCC4=C/C(=N/OC(=O)c5cccc6cc7ccccc7nc56)CC[C@]4(C)[C@H]3CC[C@]12C	HOP-92	no
CN1CCC23c4c5ccc(O)c4OC2c2[nH]c4ccccc4c2CC3(O)C1C5 (stereo unspecified)	HOP-92	no
COc1cccc(/C(Cl)=C(\C=O)c2cccc(OC)c2)c1	HOP-92	no
[O-][S+]1SC(=S)C2C=CC=CC21 (stereo unspecified)	HOP-92	no
O=S(=O)(O)c1ccc2c(/N=N/c3cccc4ccccc34)c(O)ccc2c1	HOP-92	no
CC(C)C(/N=C1\CC2CCC1(C(=O)Nc1ccccc1O)C2(C)C)c1ccccc1 (stereo unspecified)	HOP-92	no
